This collection of values is drawn from ChEMBL document CHEMBL1961873.

- target-system: Serine/threonine-protein kinase DCLK2 (Homo sapiens) (UniProt Q8N568)
- Sequence (Q8N568 whole entry): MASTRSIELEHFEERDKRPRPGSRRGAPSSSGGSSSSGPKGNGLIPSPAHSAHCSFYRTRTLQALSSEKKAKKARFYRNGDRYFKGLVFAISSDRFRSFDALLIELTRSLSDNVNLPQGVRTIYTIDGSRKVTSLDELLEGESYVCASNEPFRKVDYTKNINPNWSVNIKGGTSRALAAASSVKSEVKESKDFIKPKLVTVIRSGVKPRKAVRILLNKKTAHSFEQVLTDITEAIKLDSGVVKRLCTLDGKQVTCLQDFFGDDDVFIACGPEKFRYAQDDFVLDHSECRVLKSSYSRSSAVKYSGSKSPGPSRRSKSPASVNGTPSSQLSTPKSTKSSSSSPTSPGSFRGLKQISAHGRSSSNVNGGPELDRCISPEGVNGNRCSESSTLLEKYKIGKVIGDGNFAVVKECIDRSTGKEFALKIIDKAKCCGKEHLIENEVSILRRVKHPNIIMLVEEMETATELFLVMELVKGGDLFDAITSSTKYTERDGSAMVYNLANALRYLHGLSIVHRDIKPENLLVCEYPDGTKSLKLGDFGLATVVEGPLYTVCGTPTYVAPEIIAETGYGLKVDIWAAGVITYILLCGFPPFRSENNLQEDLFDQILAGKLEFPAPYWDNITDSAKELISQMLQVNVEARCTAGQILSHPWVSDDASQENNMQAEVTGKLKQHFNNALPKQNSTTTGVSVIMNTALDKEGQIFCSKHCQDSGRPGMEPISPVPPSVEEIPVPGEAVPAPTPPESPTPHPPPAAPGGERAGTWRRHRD
- recorded-conditions: at 0.1 µM
quantity: inhibition (%)
Expressed in %, but write only the number.

QUERY: Item: `COc1cc(N2CCN(C(C)C)CC2)ccc1Nc1nc(Nc2cccc(F)c2C(=O)O)c2cc[nH]c2n1` Test system: Serine/threonine-protein kinase DCLK2 (Homo sapiens) (UniProt Q8N568) Read-out: inhibition Value: ?
RESULT: 0.91

QUERY: Reported inhibition for Serine/threonine-protein kinase DCLK2 (Homo sapiens) (UniProt Q8N568), given `Cc1c2ccc(N(C)c3ccnc(Nc4cccc(S(N)(=O)=O)c4)n3)cc2nn1C` ?
RESULT: -2.02

QUERY: // map `NS(=O)(=O)c1ccc(N/N=C2\C(=O)Nc3ccc(C(=O)NCc4ccncc4)cc32)cc1` to recorded inhibition (system: Serine/threonine-protein kinase DCLK2 (Homo sapiens) (UniProt Q8N568))
RESULT: 3.49

QUERY: Request - read-out inhibition | tested on Serine/threonine-protein kinase DCLK2 (Homo sapiens) (UniProt Q8N568) | compound `CCOc1ccc2c(-c3ccnc(Nc4cc(OC)cc(C(F)(F)F)c4)n3)cnn2n1`;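 also: reported value is the mean percent inhibition of DCAMKL2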
RESULT: -0.5

Further cases:
QUERY: Value wanted: inhibition (Serine/threonine-protein kinase DCLK2 (Homo sapiens) (UniProt Q8N568)) of entry `c1cnn2ncc(-c3ccnc(NCCCN4CCOCC4)n3)c2c1`
RESULT: 1.46

QUERY: Serine/threonine-protein kinase DCLK2 (Homo sapiens) (UniProt Q8N568) / inhibition / `CCS(=O)(=O)c1ccc(OC)c(Nc2ncc(-c3cccc(C(C)=O)c3)o2)c1` : value?
RESULT: -0.25
